// provenance: patent US20240376120A1

System: MCF-7 cells (human breast cancer cells)
Experiment: MCF-7 cell proliferation inhibitory assay (CellTiter-Glo)
Assay type: cell-based
Settings: Homo sapiens, MCF7; MCF-7 cells, comparative Table 4; read-out: MCF-7 Proliferation inhibition IC50
Method: • 1). […] Resuspend an appropriate amount of cell suspension to 4000 cells/100 μL according to the count, mixed well and then put the corresponding number of cells into a 96-well plate by pipette. • 3). […] Day 1 detected: Take out the plate to be tested and an appropriate amount of CTG in advance and rewarm it at room temperature in the dark. […] The mixture was shaken for 5 min, and after equilibration in the dark for 5 min, the luminescence value was detected with ELISA analyzer. • 7). […]
measure_name: IC50
Numeric answer plus unit only.

Looking up CC[C@@]1(O)C(=O)OCc2c1cc1n(c2=O)Cc2c-1nc1cc(F)c(C)cc1c2CN [Compound A, reference compound] , I see its IC50 listed as 15.3 nM

* * *

Test system: MDA-MB-231 cells (human breast cancer cells)
Test: MDA-MB-231 cell proliferation inhibitory assay (CellTiter-Glo)
Assay type: cell-based
Settings: Homo sapiens, MDA-MB-231, 72 h, read-out: Proliferation inhibition IC50
We begin with a simple list: items and their reported pIC50.
Scale explanation: pIC50 corresponds to minus log10 of a concentration expressed in moles per litre.

>  <compound>
CC[C@@]1(O)C(=O)OCc2c1cc1n(c2=O)Cc2c-1nc1cc(F)c(C)cc1c2[C@H](N)CO [Example 39b]

>  <system>
MDA-MB-231 cells (human breast cancer cells)

>  <measure_name>
pIC50

>  <quantitative_result>
8.04

$$$$

Looking up CC[C@@]1(O)C(=O)OCc2c1cc1n(c2=O)Cc2c-1nc1cc(F)c(C)cc1c2[C@H]1CCN1 [Example 38b] , I see its pIC50 listed as 8.21

Looking up CC[C@@]1(O)C(=O)OCc2c1cc1n(c2=O)Cc2c-1nc1cc(F)c(F)cc1c2[C@H](C)N [Example 33a] , I see its pIC50 listed as 7.96

Looking up CC[C@@]1(O)C(=O)OCc2c1cc1n(c2=O)Cc2c-1nc1cc(F)c(C)cc1c2[C@H](C)NC(=O)[C@@H](C)O , I see its pIC50 listed as 6.85

* * *

We begin with a simple list: items and their reported pIC50.
Test system: MDA-MB-231 cells (human breast cancer cells)
Experiment: MDA-MB-231 cell proliferation inhibitory assay (CellTiter-Glo)
Type: cell-based
Details: Homo sapiens, MDA-MB-231, 72 h, read-out: Proliferation inhibition IC50
Procedure: • 1). […] Resuspend an appropriate amount of cell suspension to 3000 cells/100 μL according to the count, mixed well and then put the corresponding number of cells into a 96-well plate by pipette. • 3). […] Day 1 detected: Take out an appropriate amount of CTG 1 h in advance and the plate was allowed to equilibrate at room temperature for 30 min. 100 μL of CTG was added to each well and shaken for 5 mins, and then standed in the dark for 5 mins, the luminescence value was detected by ELISA. • 6). […]
Scale explanation: pIC50 corresponds to minus log10 of a concentration expressed in moles per litre.

Example results:
>  <compound>
CC[C@@]1(O)C(=O)OCc2c1cc1n(c2=O)Cc2c-1nc1cc(F)c(C)cc1c2[C@H](C)NCCO

>  <system>
MDA-MB-231 cells (human breast cancer cells)

>  <pIC50>
6.58

$$$$
>  <compound>
CC[C@@]1(O)C(=O)OCc2c1cc1n(c2=O)Cc2c-1nc1cc(F)c(C)cc1c2[C@@H](C)N1CCN(C)CC1 [Example 42b]

>  <system>
MDA-MB-231 cells (human breast cancer cells)

>  <pIC50>
7.12

$$$$
>  <compound>
CC[C@@]1(O)C(=O)OCc2c1cc1n(c2=O)Cc2c-1nc1cc(F)c(OC)cc1c2[C@@H](C)N [Example 30b]

>  <system>
MDA-MB-231 cells (human breast cancer cells)

>  <pIC50>
7.60

$$$$
>  <compound>
CC[C@@]1(O)C(=O)OCc2c1cc1n(c2=O)Cc2c-1nc1cc(F)c(C)c(C)c1c2[C@H](C)N [Example 29a]

>  <system>
MDA-MB-231 cells (human breast cancer cells)

>  <pIC50>
8.00

$$$$
>  <compound>
CC[C@@]1(O)C(=O)OCc2c1cc1n(c2=O)Cc2c-1nc1cc(F)c(C)cc1c2[C@@H](C)N

>  <system>
MDA-MB-231 cells (human breast cancer cells)

>  <pIC50>
8.09

$$$$

Looking up CC[C@@]1(O)C(=O)OCc2c1cc1n(c2=O)Cc2c-1nc1cc(F)c(C)c3c1c2[C@@H](NC(=O)CO)CC3 [Dxd, reference compound] , I see its pIC50 listed as 6.99

Looking up CC[C@@]1(O)C(=O)OCc2c1cc1n(c2=O)Cc2c-1nc1ccc(C(F)F)cc1c2[C@@H](C)N [Example 32b] , I see its pIC50 listed as 7.69

Looking up CC[C@@]1(O)C(=O)OCc2c1cc1n(c2=O)Cc2c-1nc1cc(F)c(C)cc1c2[C@H](C)NC(=O)[C@@H](O)C1CC1 , I see its pIC50 listed as 7.01

Looking up CC[C@@]1(O)C(=O)OCc2c1cc1n(c2=O)Cc2c-1nc1ccc(OC)cc1c2[C@@H](C)N [Example 31b] , I see its pIC50 listed as 8.04

Looking up CC[C@@]1(O)C(=O)OCc2c1cc1n(c2=O)Cc2c-1nc1ccc(O)cc1c2[C@@H](C)N , I see its pIC50 listed as 6.22

Looking up CC[C@@]1(O)C(=O)OCc2c1cc1n(c2=O)Cc2c-1nc1cc(F)c(C)cc1c2[C@H](C)NC(=O)[C@H](C)O , I see its pIC50 listed as 7.05

Looking up CC[C@@]1(O)C(=O)OCc2c1cc1n(c2=O)Cc2c-1nc1cc(F)c(C)cc1c2[C@@H](C)N1CCNCC1 [Example 41b] , I see its pIC50 listed as 7.52

Looking up [2H]C([2H])([2H])c1cc2c([C@H](C)N)c3c(nc2cc1F)-c1cc2c(c(=O)n1C3)COC(=O)[C@]2(O)CC , I see its pIC50 listed as 8.11

Looking up CC[C@@]1(O)C(=O)OCc2c1cc1n(c2=O)Cc2c-1nc1cc(F)c(C)cc1c2[C@@H]1CCN1 [Example 38a] , I see its pIC50 listed as 7.78

Looking up CC[C@@]1(O)C(=O)OCc2c1cc1n(c2=O)Cc2c-1nc1cc3c(cc1c2[C@@H](C)N)OCO3 [Example 35b] , I see its pIC50 listed as 8.15

Looking up CC[C@@]1(O)C(=O)OCc2c1cc1n(c2=O)Cc2c-1nc1ccc(OC)cc1c2[C@H](C)N [Example 31a] , I see its pIC50 listed as 7.82

Looking up CC[C@@]1(O)C(=O)OCc2c1cc1n(c2=O)Cc2c-1nc1cc(F)c(C)cc1c2[C@@H](N)CO [Example 39a] , I see its pIC50 listed as 7.59

Looking up CC[C@@]1(O)C(=O)OCc2c1cc1n(c2=O)Cc2c-1nc1ccc(O)cc1c2[C@H](C)N , I see its pIC50 listed as 5.96

Looking up CC[C@@]1(O)C(=O)OCc2c1cc1n(c2=O)Cc2c-1nc1cc(F)c(C)cc1c2[C@H](C)NC(=O)[C@@H](O)C(F)(F)F , I see its pIC50 listed as 6.58

Looking up CC[C@@]1(O)C(=O)OCc2c1cc1n(c2=O)Cc2c-1nc1cc(F)c(C(F)(F)F)cc1c2[C@H](C)N [Example 34a] , I see its pIC50 listed as 7.94

Looking up CC[C@@]1(O)C(=O)OCc2c1cc1n(c2=O)Cc2c-1nc1cc(F)c(C)cc1c2[C@H](C)NCCN(C)C [Example 25a] , I see its pIC50 listed as 7.40

* * *

Test system: MDA-MB-231 cells (human breast cancer cells)
Assay: MDA-MB-231 cell proliferation inhibitory assay (CellTiter-Glo)
Assay type: cell-based
Details: Homo sapiens, MDA-MB-231, 72 h, read-out: Proliferation inhibition IC50
measure_name: IC50 (µM)
All answers are understood in µM, so give the number only.

>  <compound>
CC[C@@]1(O)C(=O)OCc2c1cc1n(c2=O)Cc2c-1nc1cc(F)c(C)cc1c2[C@@H](C)NC(C)=O

>  <IC50 / µM>
0.11

$$$$
>  <compound>
CC[C@@]1(O)C(=O)OCc2c1cc1n(c2=O)Cc2c-1nc1cc(F)c(C)cc1c2[C@@H](C)NCCN(C)C [Example 25b]

>  <IC50 / µM>
0.0609

$$$$
>  <compound>
CC[C@@]1(O)C(=O)OCc2c1cc1n(c2=O)Cc2c-1nc1cc(F)c(C)cc1c2[C@@H](C)NS(C)(=O)=O [Example 26a]

>  <IC50 / µM>
0.0892

$$$$
>  <compound>
CC[C@@]1(O)C(=O)OCc2c1cc1n(c2=O)Cc2c-1nc1cc(F)c(C)cc1c2[C@@H]1CCCN1

>  <IC50 / µM>
0.21

$$$$
>  <compound>
CC[C@@]1(O)C(=O)OCc2c1cc1n(c2=O)Cc2c-1nc1cc(F)c(C)cc1c2[C@H](C)[N+](C)(C)C

>  <IC50 / µM>
0.0801

$$$$

Looking up CC[C@@]1(O)C(=O)OCc2c1cc1n(c2=O)Cc2c-1nc1cc(F)c(C(F)(F)F)cc1c2[C@@H](C)N [Example 34b] , I see its IC50 listed as 0.0088

Looking up CC[C@@H](N)c1c2c(nc3ccccc13)-c1cc3c(c(=O)n1C2)COC(=O)[C@]3(O)CC , I see its IC50 listed as 0.18

Looking up CC[C@@]1(O)C(=O)OCc2c1cc1n(c2=O)Cc2c-1nc1cc(F)c(F)cc1c2[C@@H](C)N [Example 33b] , I see its IC50 listed as 0.0243

Looking up CC[C@@]1(O)C(=O)OCc2c1cc1n(c2=O)Cc2c-1nc1ccccc1c2[C@H](C)N , I see its IC50 listed as 0.28

Looking up CC[C@@]1(O)C(=O)OCc2c1cc1n(c2=O)Cc2c-1nc1ccccc1c2[C@@H](C)N , I see its IC50 listed as 0.12

Looking up CC[C@@]1(O)C(=O)OCc2c1cc1n(c2=O)Cc2c-1nc1cc(F)c(C)c3c1c2[C@@H](N)CC3 [Compound B, Exatecan, reference compound] , I see its IC50 listed as 0.0309

Looking up CC[C@@]1(O)C(=O)OCc2c1cc1n(c2=O)Cc2c-1nc1cc(F)c(C)cc1c2[C@H](C)NC(=O)C1CCCCC1O (some centres unmarked) , I see its IC50 listed as 0.15

Looking up CC[C@@]1(O)C(=O)OCc2c1cc1n(c2=O)Cc2c-1nc1cc3c(cc1c2[C@@H](C)N)OCCO3 [Example 36b] , I see its IC50 listed as 0.0154

Looking up CC[C@@]1(O)C(=O)OCc2c1cc1n(c2=O)Cc2c-1nc1ccc(O)cc1c2C(C)O (some centres unmarked) , I see its IC50 listed as 1.2
